- Test system: 485176-168-R4-J1-PDC spheroids with HUVEC/MSC, viability
- protocolDetails: Anticancer human tumor 485176-168-R4-J1-PDC patient-derived pancreatic adenocarcinoma cell line growth inhibition [GQUAD]
- setupConditions: curve of first compound; second compound 0.1 µM
- From the text: DNA G-quadruplex Stabilizer Agents in Combinations in Complex Spheroids A high-throughput screen of multi-cell type tumor spheroids was designed to identify active combinations of DNA G-quadruplex stabilizer agents and targeted small molecules. […] Compounds. […] If the clinical Cmax for an agent had not been determined, the highest concentration tested was 10 microM. […]
pIC50: −log10 of the molar value.
quantity: pIC50

Provide measured pIC50 on 485176-168-R4-J1-PDC spheroids with HUVEC/MSC, viability for Cn1ncnc1[C@H]1c2n[nH]c(=O)c3cc(F)cc(c23)N[C@@H]1c1ccc(F)cc1 + CN(C)c1ccc(Nc2c3ccc(NC(=O)CCN4CCCC4)cc3nc3cc(NC(=O)CCN4CCCC4)ccc23)cc1 please.
< 6.50

Provide measured pIC50 on 485176-168-R4-J1-PDC spheroids with HUVEC/MSC, viability for C=CC(=O)N1CCN(c2nc(=O)n(-c3c(C)ccnc3C(C)C)c3nc(-c4c(O)cccc4F)c(F)cc23)C(C)C1 (stereo not drawn) + Cc1[nH]c2ccc(F)cc2c1-c1nc2c3cccnc3c3ncccc3c2[nH]1 please.
< 5.00

Provide measured pIC50 on 485176-168-R4-J1-PDC spheroids with HUVEC/MSC, viability for Cc1cccc(N(C)C(=O)C2C(O)CCN2c2nc(C)cc(C(F)(F)F)c2C#N)c1 (stereo not drawn) + CN(C)c1ccc(Nc2c3ccc(NC(=O)CCN4CCCC4)cc3nc3cc(NC(=O)CCN4CCCC4)ccc23)cc1 please.
< 5.00

====

- System: 485176-168-R4-J1-PDC spheroids with HUVEC/MSC, viability
- protocolDetails: Anticancer human tumor 485176-168-R4-J1-PDC cell line growth inhibition [GQUAD];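 note: spheroids exposed to compounds for seven days before readout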;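 for viability, T/C: percent viability relative to DMSO vehicle control wells as 100%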
- setupConditions: second compound 3.16 µM; first compound 0.00316 µM; stronger effect = lower value
quantity: viability, T/C (%)
Quick note: give the figure in %, leave out the unit.

Fill in reported viability, T/C for this entry: CCc1c2c(nc3ccc(O)cc13)-c1cc3c(c(=O)n1C2)COC(=O)[C@]3(O)CC + Cc1[nH]c2ccc(F)cc2c1-c1nc2c3cccnc3c3ncccc3c2[nH]1
73.2

Fill in reported viability, T/C for this entry: Cc1[nH]c2ccccc2c1CCNCc1ccc(/C=C/C(=O)NO)cc1 + CN(C)c1ccc(Nc2c3ccc(NC(=O)CCN4CCCC4)cc3nc3cc(NC(=O)CCN4CCCC4)ccc23)cc1
97.9

Fill in reported viability, T/C for this entry: Cc1[nH]c2ccccc2c1CCNCc1ccc(/C=C/C(=O)NO)cc1 + Cc1cnc(CNC(=O)c2c(=O)c3ccc(N4CCCN(C)CC4)nc3n3c2sc2ccccc23)cn1
39.2

Fill in reported viability, T/C for this entry: Cn1ncnc1[C@H]1c2n[nH]c(=O)c3cc(F)cc(c23)N[C@@H]1c1ccc(F)cc1 + CN(C)c1ccc(Nc2c3ccc(NC(=O)CCN4CCCC4)cc3nc3cc(NC(=O)CCN4CCCC4)ccc23)cc1
80.9

====

Record form. Attribute: pIC50. Fill in for each entry.
- Test system: 485176-168-R4-J1-PDC spheroids with HUVEC/MSC, viability
- protocolDetails: Anticancer human tumor 485176-168-R4-J1-PDC cell line growth inhibition [GQUAD];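 note: spheroids exposed to compounds for seven days before readout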
- setupConditions: curve of first compound; second compound 0.1 µM
pIC50: −log10 of the molar value.

Fill in reported pIC50 for this entry: CC(=O)O[C@H]1C(=O)[C@@]2(C)[C@H]([C@H](OC(=O)c3ccccc3)[C@]3(O)C[C@H](OC(=O)[C@H](O)[C@@H](NC(=O)c4ccccc4)c4ccccc4)C(C)=C1C3(C)C)[C@]1(OC(C)=O)CO[C@@H]1C[C@@H]2O + CN(C)c1ccc(Nc2c3ccc(NC(=O)CCN4CCCC4)cc3nc3cc(NC(=O)CCN4CCCC4)ccc23)cc1
> 7.50

Fill in reported pIC50 for this entry: COc1ncnc(C2CC2)c1-c1ncc2cnn(Cc3ccc(-c4nc(C(F)(F)F)cn4C(C)C)cc3)c2n1 + CN(C)c1ccc(Nc2c3ccc(NC(=O)CCN4CCCC4)cc3nc3cc(NC(=O)CCN4CCCC4)ccc23)cc1
< 5.00

Fill in reported pIC50 for this entry: C#Cc1c(F)ccc2cc(O)cc(-c3ncc4c(N5CC6CCC(C5)N6)nc(OCC56CCCN5CC(F)C6)nc4c3F)c12 (stereo not given) + CN(C)c1ccc(Nc2c3ccc(NC(=O)CCN4CCCC4)cc3nc3cc(NC(=O)CCN4CCCC4)ccc23)cc1
< 5.00

Fill in reported pIC50 for this entry: CCCS(=O)(=O)Nc1ccc(F)c(C(=O)c2c[nH]c3ncc(-c4ccc(Cl)cc4)cc23)c1F + Cc1[nH]c2ccc(F)cc2c1-c1nc2c3cccnc3c3ncccc3c2[nH]1
< 5.00

Fill in reported pIC50 for this entry: Cn1ncnc1[C@H]1c2n[nH]c(=O)c3cc(F)cc(c23)N[C@@H]1c1ccc(F)cc1 + Cc1cnc(CNC(=O)c2c(=O)c3ccc(N4CCCN(C)CC4)nc3n3c2sc2ccccc23)cn1
< 6.50

Fill in reported pIC50 for this entry: C#Cc1c(F)ccc2cc(O)cc(-c3ncc4c(N5CC6CCC(C5)N6)nc(OCC56CCCN5CC(F)C6)nc4c3F)c12 (stereo not given) + Cc1[nH]c2ccc(F)cc2c1-c1nc2c3cccnc3c3ncccc3c2[nH]1
< 5.00

Fill in reported pIC50 for this entry: Cc1cccc(N(C)C(=O)C2C(O)CCN2c2nc(C)cc(C(F)(F)F)c2C#N)c1 (stereo not given) + Cc1[nH]c2ccc(F)cc2c1-c1nc2c3cccnc3c3ncccc3c2[nH]1
< 5.00

Fill in reported pIC50 for this entry: COc1ncnc(C2CC2)c1-c1ncc2cnn(Cc3ccc(-c4nc(C(F)(F)F)cn4C(C)C)cc3)c2n1 + Cc1cnc(CNC(=O)c2c(=O)c3ccc(N4CCCN(C)CC4)nc3n3c2sc2ccccc23)cn1
< 5.00

Fill in reported pIC50 for this entry: C=CC(=O)N1CCN(c2nc(=O)n(-c3c(C)ccnc3C(C)C)c3nc(-c4c(O)cccc4F)c(F)cc23)C(C)C1 (stereo not given) + Cc1cnc(CNC(=O)c2c(=O)c3ccc(N4CCCN(C)CC4)nc3n3c2sc2ccccc23)cn1
< 5.00

Fill in reported pIC50 for this entry: C#Cc1c(F)ccc2cc(O)cc(-c3ncc4c(N5CC6CCC(C5)N6)nc(OCC56CCCN5CC(F)C6)nc4c3F)c12 (stereo not given) + Cc1cnc(CNC(=O)c2c(=O)c3ccc(N4CCCN(C)CC4)nc3n3c2sc2ccccc23)cn1
< 5.00
